The reported measurements were obtained from the NIST ThermoML archive (doi:10.1016/j.fluid.2009.08.017).

Experiment Description: activity coefficient (dimensionless); of the first substance listed, at infinite dilution; xn = mol fraction of the nth substance listed
Stated Conditions: 308.15 K; 101 kPa; Liquid; Chromatography; x1 = 0
Measured Attribute: activity coefficient
Enter the number alone.

| Compound | activity coefficient |
| --- | --- |
| C=CCCCCC [1-heptene] + CCCCCCOCn1cc[n+](COCCCCCC)c1.O=S(=O)([N-]S(=O)(=O)C(F)(F)F)C(F)(F)F | 2.64 |

Q) Please report the recorded activity coefficient for C=CCCC [1-pentene] + CCCCCCOCn1cc[n+](C)c1.O=S(=O)([N-]S(=O)(=O)C(F)(F)F)C(F)(F)F .
A) 3.86

Q) Next: CCc1ccccc1 [ethylbenzene] + CCCCCCOCn1cc[n+](C)c1.O=S(=O)([N-]S(=O)(=O)C(F)(F)F)C(F)(F)F
A) 1.49
